tested on: Aeromonas sp. Wild type; assay: Microbiological challenge testing in BPW broth, graded subculture counts; type: cell-based; conditions: 2.5% weight/volume; 3 day
MEASUREMENT_KIND: Aeromonas sp growth grade, 3 day

Which Aeromonas sp growth grade, 3 day value is on record for OCC1CCCCC1CO (stereo not shown) ?
0

* * *

system: Bacillus subtilis Wild type; test: Microbiological challenge testing in BPW broth, graded subculture counts; assay type: cell-based; settings: 5.0% weight/volume; 3 day
Readings of B. subtillis growth grade, 3 day for the listed compounds

INSERT INTO measurements (compound, reported_measurement) VALUES
  ('O=C([O-])CN(CCN(CC(=O)[O-])CC(=O)O)CC(=O)O.[Na+].[Na+] [EDTA, Na2EDTA]', 0);

Now turn to the next compound.
What value of B. subtillis growth grade, 3 day on Bacillus subtilis Wild type does OCC1CCCCC1CO (stereo not shown) [1,2-CHDM, 1,2-cyclohexanedimethanol] have?
0
